biological target: FAK-Akt1 interaction (Homo sapiens, UniProt P31749); construct: endogenous in cells; host or cells: Akt1 from Caco-2/SW620 cell lysate; GST-FAK bait expressed in E. coli BL21 (pGEX-4T1); assay: Interference of FAK-derived peptides with GST-FAK / GST-FAK-NT1 pull-down of Akt1; assay type: binding; conditions: bait human wild type GST-FAK; peptides at 160 μM; vs. vehicle; n=12-14
Sequence (P31749 whole entry): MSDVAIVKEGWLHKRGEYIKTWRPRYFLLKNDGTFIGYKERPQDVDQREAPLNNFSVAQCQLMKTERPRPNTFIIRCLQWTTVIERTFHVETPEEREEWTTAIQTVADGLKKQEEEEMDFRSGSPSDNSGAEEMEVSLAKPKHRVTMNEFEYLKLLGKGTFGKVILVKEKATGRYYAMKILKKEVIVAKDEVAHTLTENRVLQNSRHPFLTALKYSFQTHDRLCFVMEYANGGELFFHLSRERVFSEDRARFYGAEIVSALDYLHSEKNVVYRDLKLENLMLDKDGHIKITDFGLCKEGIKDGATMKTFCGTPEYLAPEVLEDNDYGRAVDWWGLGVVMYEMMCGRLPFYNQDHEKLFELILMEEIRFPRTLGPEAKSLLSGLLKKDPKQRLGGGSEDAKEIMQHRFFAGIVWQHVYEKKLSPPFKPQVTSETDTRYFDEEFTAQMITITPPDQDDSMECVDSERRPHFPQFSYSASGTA
VALUE TYPE: Akt1 pulldown by full length GST-FAK in presence of interfering 7 amino acid peptide

>  <SUBSTANCE>
WKYELRI [β-strand control peptide, C-terminal adjacent to the short helix, reference compound]

>  <REPORTED RESULT>
No such effect

$$$$
>  <SUBSTANCE>
LAHPSEE [mutant (P117S) version of the seven amino acid FAK peptide]

>  <REPORTED RESULT>
reduced Akt1 pulldown

$$$$
>  <SUBSTANCE>
AAHCGEE [triple mutant L113A, P116C, P117G version of the FAK peptide]

>  <REPORTED RESULT>
reduced Akt1 pulldown

$$$$
>  <SUBSTANCE>
HPELAPE [scrambled short helix control peptide, reference compound]

>  <REPORTED RESULT>
No such effect

$$$$
>  <SUBSTANCE>
LAHPPEE (listed as Homo sapiens) [wild-type seven amino acid short helix peptide, FAK residues 113-119]

>  <REPORTED RESULT>
reduced Akt1 pulldown

$$$$
